Origin of values: the supplement of paper PMC8728848

target: Fuc(a1-2)Gal(b1-4)GlcNAc(b1-3)[Fuc(a1-2)Gal(b1-4)GlcNAc(b1-6)]GalNAc; assay: glycan array binding signal (z-score within array); higher = stronger binding; conditions: glycan notation: IUPAC condensed, linker removed
About 410 targets per protein were measured; listed, in parts, are those with the strongest signals and a random draw of the rest.
Quick rule for you: glycan array binding signal (z-score) at -0.3 or higher means 1 (yes), lower means 0 (no).

// below: answered binders
>>> qualitative_label("Aap arpt (Staphylococcus epidermidis) (protein) NNEAPQMSSTLQAEEGSNAEAPQSEPTKAEEGGNAEAAQSEPTKAEEGGNAEAPQSEPTKAEEGGNAEAAQSEPTKTEEGSNVKAAQSEPTKAEEGSNAEAPQSEPTKTEEGSNAKAAQSEPTKAEEGGNAEAAQSEPTKTEEGSNAEAPQSEPTKAEEGGYAEAPQSEPTKTEEGGNAEAPNVPTIKA")
"0 (no)"
>>> qualitative_label("CV-2L (Chromobacterium violaceum), Q7NX84 (protein) MAQQGVFTLPARINFGVTVLVNSAATQHVEIFVDNEPRAAFSGVGTGDNNLGTKVINSGSGNVRVQITANGRQSDLVSSQLVLANKLNLAVVGSEDGTDMDYNDSIVILNWPLG")
"1 (yes)"
>>> qualitative_label("Na-CTL-1 (Necator americanus) (protein) MQRSFLLLLVVLAGAWAVNTTIPLKLMGGFTPMKYQCVGRVSDIWADVLFLIESSDMITKSGFRQVIAFITATTKKMTIGQDEKQTRVGFITYGEEAKLIYDLDHWRSTEKLSDLVQKIPYVKSSGTNIAAAIALANKVFNSPTHRPNVPKVMVIVANGLKKGSQNPIPVATAFKDFGGIIITIEYTQYDNIQVPILKKIASEGYNIRSNDEDFSVRTLTNMLLQANCFCPDHYVPFRVNNPEFGCFVTAKIPSMWRDAAEMCRAVEEGKLVKVENEEKAAFIMKLVGPKKEAWIGLRYYGNKFQWTDGTKLNADDFNLWPEDIKELNGPHCVSMYQDQKDKKYYWRAGKCLEDMRYVCEVQPCSASNYCSEPVFMYRQKHRALLPAPPPPPN")
"0 (no)"

Next up:
Evaluate Epa7 (Candida glabrata), Q6DTM6_CANGB (protein) MGSSHHHHHHSSGLVPRGSHMKDDYSSFLSNNNLGWTDPTEFPLGCSPNVTTPKNGLSMELYSYDLRKNGSYPCWDAAYLDPNYPRTGYKSHRLLAKVDGVTGNINFYYHATKGCTPEIDHLPASYNYPKPLTMTNFTMLLYGYFKPKVTGYHTFTISADDLLFVNFGAGNAFDCCKRESSADDFGNYQAYAVWGSQTAKDDLTVHLDAGLYYPIRIFFNNREYDAELSLTLKTESDSNPVIDFSDYFYSFDDTKDGCPGLVSYDTS : glycan array binding signal (z-score) at minimum -0.3?
1 (yes)
